Molecular target: Luciferin 4-monooxygenase (Photinus pyralis) (UniProt P08659)
Sequence (P08659 whole entry, looked up): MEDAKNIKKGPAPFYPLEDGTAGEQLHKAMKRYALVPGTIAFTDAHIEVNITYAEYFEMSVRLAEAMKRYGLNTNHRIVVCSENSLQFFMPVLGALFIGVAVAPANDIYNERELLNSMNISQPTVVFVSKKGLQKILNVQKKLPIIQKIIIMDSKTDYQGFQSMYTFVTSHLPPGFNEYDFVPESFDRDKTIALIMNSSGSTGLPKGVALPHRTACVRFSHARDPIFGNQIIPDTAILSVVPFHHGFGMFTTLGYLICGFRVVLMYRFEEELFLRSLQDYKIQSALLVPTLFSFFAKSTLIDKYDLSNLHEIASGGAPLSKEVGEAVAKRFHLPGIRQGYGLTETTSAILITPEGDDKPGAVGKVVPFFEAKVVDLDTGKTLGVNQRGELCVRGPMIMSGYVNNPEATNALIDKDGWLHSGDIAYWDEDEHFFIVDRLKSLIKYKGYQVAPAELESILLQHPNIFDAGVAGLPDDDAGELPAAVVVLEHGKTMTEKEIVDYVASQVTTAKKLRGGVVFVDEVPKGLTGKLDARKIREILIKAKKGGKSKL
Test: FLuc inhibitory activity for the follow-up compounds in a biochemical assay with Km concentrations of substrate
Details: purified FLuc, Km substrates, luminescence; series mostly up to 57.5 µM
Inconclusive results are not listed. The source made the active and inactive calls. Calls follow the shape of the dose curve; as a rule, active = well fitted inhibition curve with a large enough effect; inconclusive = small, poorly fitted or top-dose-only effect; inactive = no such curve, though single readings can be large or run the other way.
Outcomes: yes (1) = active, no (0) = inactive

[[record]]
compound = "COc1ccc2nc(NC(=O)c3ccc(S(=O)(=O)N4CCCC(C)C4)cc3)sc2c1 (centres undefined)"
assignedlabel = "no (0)"

[[record]]
compound = "COc1ccc(C(=O)Nc2ccccc2C(=O)Nc2ccccc2C(=O)O)cc1"
assignedlabel = "yes (1)"

[[record]]
compound = "COc1ccc(CC(=O)Nc2cccc(C(=O)Nc3ccccc3C(=O)O)c2)cc1OC"
assignedlabel = "yes (1)"

[[record]]
compound = "Nc1ccc(-c2nc3cc(N)ccc3s2)cc1"
assignedlabel = "yes (1)"


###

Molecular target: Luciferin 4-monooxygenase (Photinus pyralis) (UniProt P08659)
Test: FLuc inhibitory activity for the follow-up compounds in a biochemical assay with Km concentrations of substrate
Conditions: purified FLuc, Km substrates, luminescence; series mostly up to 57.5 µM
Results filed as inconclusive are left out. Activity calls are given as the source filed them. Calls come from the whole dose curve; as a rule, active = well fitted inhibition curve with a large enough effect; inconclusive = small, poorly fitted or top-dose-only effect; inactive = no such curve, though single readings can be large or run the other way.
Outcomes: 1 (active), 0 (inactive)

[[record]]
structurenotation = "Cc1ccc2sc(-c3ccc(N)cc3)nc2c1"
targetentity = "Luciferin 4-monooxygenase (Photinus pyralis) (UniProt P08659)"
assignedlabel = 1

[[record]]
structurenotation = "COc1ccc(-c2nc3ccccc3s2)cc1NC(=O)c1ccc(F)cc1"
targetentity = "Luciferin 4-monooxygenase (Photinus pyralis) (UniProt P08659)"
assignedlabel = 0

[[record]]
structurenotation = "CN=c1scc(-c2ccccc2F)n1/N=C/c1ccc[nH]1"
targetentity = "Luciferin 4-monooxygenase (Photinus pyralis) (UniProt P08659)"
assignedlabel = 1

[[record]]
structurenotation = "Nc1ccc2nc(-c3ccccc3)sc2c1"
targetentity = "Luciferin 4-monooxygenase (Photinus pyralis) (UniProt P08659)"
assignedlabel = 1

[[record]]
structurenotation = "Cc1ccc(C(=O)O/N=C(\\N)c2ccccn2)cc1"
targetentity = "Luciferin 4-monooxygenase (Photinus pyralis) (UniProt P08659)"
assignedlabel = 1

[[record]]
structurenotation = "COc1ccc(C(=O)Nc2cccc(C(=O)O)c2)cc1S(=O)(=O)N1CCCC1"
targetentity = "Luciferin 4-monooxygenase (Photinus pyralis) (UniProt P08659)"
assignedlabel = 1

[[record]]
structurenotation = "O=C(Nc1ccccc1C(=O)O)c1cccc(NC(=O)c2ccc(Br)o2)c1"
targetentity = "Luciferin 4-monooxygenase (Photinus pyralis) (UniProt P08659)"
assignedlabel = 1

[[record]]
structurenotation = "O=C(Nc1cccc(-c2nc3ccccc3s2)c1)c1cc(-n2cnnc2)ccc1Cl"
targetentity = "Luciferin 4-monooxygenase (Photinus pyralis) (UniProt P08659)"
assignedlabel = 1

[[record]]
structurenotation = "CN(C)c1cccc(C(=O)Nc2ccc(-c3nc4ccccc4s3)cc2)c1"
targetentity = "Luciferin 4-monooxygenase (Photinus pyralis) (UniProt P08659)"
assignedlabel = 1

[[record]]
structurenotation = "CCCC(=O)Nc1nc2ccc(OCC)cc2s1"
targetentity = "Luciferin 4-monooxygenase (Photinus pyralis) (UniProt P08659)"
assignedlabel = 1

